biological target: Human plasma kallikrein (PK) (Homo sapiens, UniProt P03952); construct: purchased Haemtech Technologies (Essex Junction, Vt.); assay: Inhibition of human plasma kallikrein amidolytic activity (H-D-Pro-Phe-Arg-pNA cleavage, A405); assay type: biochemical; conditions: Table 4 inhibition constants; read-out: Ki
Sequence (P03952 391-638 limits assumed): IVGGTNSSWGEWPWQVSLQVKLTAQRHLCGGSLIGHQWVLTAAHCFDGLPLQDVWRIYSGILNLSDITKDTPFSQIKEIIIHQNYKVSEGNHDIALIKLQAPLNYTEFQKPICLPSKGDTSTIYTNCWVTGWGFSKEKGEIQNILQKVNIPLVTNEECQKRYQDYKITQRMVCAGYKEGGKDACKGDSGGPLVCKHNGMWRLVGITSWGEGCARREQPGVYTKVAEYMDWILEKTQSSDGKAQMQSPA
Sequence (P03952 20-390 partner limits assumed): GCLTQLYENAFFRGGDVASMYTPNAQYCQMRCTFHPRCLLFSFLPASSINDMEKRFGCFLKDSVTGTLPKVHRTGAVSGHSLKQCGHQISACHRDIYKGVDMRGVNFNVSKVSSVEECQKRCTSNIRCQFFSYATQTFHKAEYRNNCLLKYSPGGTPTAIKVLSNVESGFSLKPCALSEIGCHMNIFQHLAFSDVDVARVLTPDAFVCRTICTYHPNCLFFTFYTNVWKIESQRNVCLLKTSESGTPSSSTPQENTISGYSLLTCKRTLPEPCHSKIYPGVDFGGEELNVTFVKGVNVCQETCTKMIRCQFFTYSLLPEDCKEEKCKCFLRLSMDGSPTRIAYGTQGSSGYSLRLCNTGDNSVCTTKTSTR
MEASUREMENT LABEL: pKi
Interpret pKi as the negative base-10 log of the concentration measured in mol/L.

N=C(N)c1ccc(CNC(=O)c2cn(Cc3ccccc3)c3ccccc23)cc1 [compound 1]: 7.10
N=C(N)c1ccc(CNC(=O)c2cnn(-c3ccccc3)c2)cc1 [compound 4]: 6.00
N=C(N)c1ccc(CNC(=O)c2cnn(Cc3ccccc3)c2)cc1 (single isomer, unassigned) [compound 3]: 6.82

For the next question, use this compound.
input: State its pKi: N=C(N)c1ccc(CNC(=O)c2cn(S(=O)(=O)c3ccccc3)c3ccccc23)cc1 (single isomer, unassigned) [compound 2]
output: 7.52

###

biological target: Human plasma kallikrein (PK) (Homo sapiens, UniProt P03952); construct: purchased Haemtech Technologies (Essex Junction, Vt.); assay: Inhibition of human plasma kallikrein amidolytic activity (H-D-Pro-Phe-Arg-pNA cleavage, A405); format: biochemical; settings: apparent inhibition constant; 1 nM PK, pH 7.5; read-out: PK Kiapp
Listed here are molecules together with their documented pKi.
Interpret pKi as the negative base-10 log of the concentration measured in mol/L.

Check out these entries, answers already filled in.
N=C(N)c1ccc(CNC(=O)c2cc3ccccc3s2)cc1 [ASP-486]: 5.80
Cc1nc(-c2ccccc2)sc1C(=O)NCc1ccc(C(=N)N)cc1 [ASP-373]: 5.05
N=C(N)c1ccc(CNC(=O)c2csc3ccccc23)cc1 [ASP-491]: 5.68
Cc1cc(C(=O)NCc2ccc(C(=N)N)cc2)c(C)n1-c1ccccc1 [ASP-576]: 7.40

input: State its pKi: N=C(N)c1ccc(CNC(=O)c2cn(S(=O)(=O)c3ccccc3)c3ccccc23)cc1 [ASP-383]
output: 6.77

input: State its pKi: Cc1nn(Cc2c(Cl)cccc2Cl)c(Cl)c1C(=O)NCc1ccc(C(=N)N)cc1 [ASP-579]
output: 5.92

input: State its pKi: Cc1nn(Cc2ccc(F)cc2)c(Cl)c1C(=O)NCc1ccc(C(=N)N)cc1 [ASP-583]
output: 5.62

input: State its pKi: N=C(N)c1ccc(CNC(=O)c2c[nH]c3ccccc23)cc1 [ASP-493]
output: 5.61

input: State its pKi: Cc1nn(Cc2ccccc2)c(C)c1C(=O)NCc1ccc(C(=N)N)cc1 [ASP-577]
output: 5.95
